Biological target: Adenosine receptor A2a (Homo sapiens, UniProt P29274)
Sequence (P29274 whole entry): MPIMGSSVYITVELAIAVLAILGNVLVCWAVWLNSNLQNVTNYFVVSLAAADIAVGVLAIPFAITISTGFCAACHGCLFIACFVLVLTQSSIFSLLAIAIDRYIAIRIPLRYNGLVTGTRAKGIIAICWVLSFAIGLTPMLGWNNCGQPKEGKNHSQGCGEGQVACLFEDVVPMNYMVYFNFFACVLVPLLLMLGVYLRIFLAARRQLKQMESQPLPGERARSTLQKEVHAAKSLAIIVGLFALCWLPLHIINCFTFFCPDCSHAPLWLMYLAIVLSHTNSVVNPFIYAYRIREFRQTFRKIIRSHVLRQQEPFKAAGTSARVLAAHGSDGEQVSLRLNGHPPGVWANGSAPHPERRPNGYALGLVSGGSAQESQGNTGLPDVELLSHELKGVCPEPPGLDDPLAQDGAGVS
pKi: −log10 of the molar value.
Lab note: anything with pKi at or over 7 counts as rule met; the rest go in rule not met.

Field: example entries. Status: answers known.
# smilesText, testedTarget, label
data = [
    ("CCCn1c(=O)c2[nH]c(-c3ccc(OCC(=O)Nc4ccc(F)cc4)cc3)cc2n(CCC)c1=O", "Adenosine receptor A2a (Homo sapiens, UniProt P29274)", "rule met"),
    ("CCCn1c(=O)c2[nH]c(-c3ccc(OCC(=O)Nc4ccccc4)cc3)nc2n(CCC)c1=O", "Adenosine receptor A2a (Homo sapiens, UniProt P29274)", "rule met"),
    ("Cn1c(=O)c2[nH]c(-c3ccc(OCC(=O)NCc4ccc(F)cc4)cc3)cc2n(C)c1=O", "Adenosine receptor A2a (Homo sapiens, UniProt P29274)", "rule met"),
    ("Cn1c(=O)c2[nH]c(-c3cccc(OCC(=O)Nc4ccccc4)c3)cc2n(C)c1=O", "Adenosine receptor A2a (Homo sapiens, UniProt P29274)", "rule not met"),
]

Lab note: next compound to report on.
API: above_or_equal(metric=pKi, cutoff=7) for item CCCn1c(=O)c2[nH]c(-c3ccc(OCC(=O)Nc4ccccc4)cc3)cc2n(CCC)c1=O
rule not met

====

Target: Adenosine receptor A2a (Homo sapiens)
Test: Displacement of [3H]ZM-241385 from recombinant human adenosine A2A receptor expressed in HeLa cells at 0.1 uM
Tick Y if inhibition is 20% or greater. Tick N if inhibition is less than 20%.

Can O=C(COc1ccc(-c2cc3c([nH]2)c(=O)n(CC2CC2)c(=O)n3CC2CC2)cc1)Nc1ccc(Br)cc1 be said to have inhibition at or above 20%?
Y

// inclusive: inhibition at least 20%? input: CCCn1c(=O)n(C)c(=O)c2[nH]c(-c3ccc(OCC(=O)Nc4ccccc4)cc3)cc21
Y

Please check the record CCCn1c(=O)n(C)c(=O)c2[nH]c(-c3ccc(OCC(=O)O)cc3)cc21 and state if its inhibition is at or above 20%.
N

Tell me whether inhibition is at least 20% here: COc1cc(OCC(=O)NCc2ccc(Cl)cc2)ccc1-c1cc2c([nH]1)c(=O)n(C)c(=O)n2C
Y

====

Target: Adenosine receptor A2b (Homo sapiens)
Sequence (P29275 whole entry): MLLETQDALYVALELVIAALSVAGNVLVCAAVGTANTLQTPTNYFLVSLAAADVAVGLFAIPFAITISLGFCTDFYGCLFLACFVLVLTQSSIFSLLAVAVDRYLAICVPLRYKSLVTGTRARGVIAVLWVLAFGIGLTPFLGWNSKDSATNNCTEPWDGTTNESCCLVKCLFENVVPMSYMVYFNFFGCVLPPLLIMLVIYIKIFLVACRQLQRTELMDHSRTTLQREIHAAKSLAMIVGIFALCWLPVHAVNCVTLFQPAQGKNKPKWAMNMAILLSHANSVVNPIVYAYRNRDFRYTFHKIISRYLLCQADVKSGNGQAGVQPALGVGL
measurementType: Ki (nM)
State the answer as a number, implicitly in nM.

# molecule, Ki [nM]
measured = [
    ("CCCn1c(=O)c2[nH]c(-c3ccc(OCC(=O)NCc4ccncc4)cc3)cc2n(CCC)c1=O", 28.2),
    ("CCCn1c(=O)c2[nH]c(-c3ccc(OCC(=O)Nc4ccc(C)cc4)cc3)c(Cl)c2n(CCC)c1=O", 18.6),
    ("CCCn1c(=O)c2[nH]c(-c3ccc(OCC(=O)Nc4ccccc4)cc3)c(Cl)c2n(CCC)c1=O", 37.2),
]

Result for Cn1c(=O)c2[nH]c(-c3ccc(OCC(=O)O)cc3)cc2n(C)c1=O , tested on Adenosine receptor A2b (Homo sapiens), Ki: 123

Hey, Adenosine receptor A2b (Homo sapiens) data for CCCn1c(=O)c2[nH]c(-c3ccc(OCC(=O)Nc4ccc(I)cc4)cc3)cc2n(C)c1=O : Ki came out at 5.89

// molecule CC(NC(=O)COc1ccc(-c2cc3c([nH]2)c(=O)n(C)c(=O)n3C)cc1)c1ccccc1 (configuration not stated) , assay Adenosine receptor A2b (Homo sapiens), Ki value: 27.5

Response field Ki (Adenosine receptor A2b (Homo sapiens)) for item COc1cc(-c2cc3c([nH]2)c(=O)n(C)c(=O)n3C)ccc1OCC(=O)Nc1ccc(Br)cc1 : 38.9

Entry CCCn1c(=O)c2[nH]c(-c3ccc(OCC(=O)Nc4ccc(F)cc4)cc3)cc2n(CCC)c1=O ; assay system Adenosine receptor A2b (Homo sapiens); Ki recorded at 3.31

Query COCCCn1c(=O)n(C)c(=O)c2[nH]c(-c3ccc(OCC(=O)O)cc3)cc21 on Adenosine receptor A2b (Homo sapiens); Ki returned: 214
